These entries and their values trace back to patent US8791267B2.

experimental.target: PDE4B (Homo sapiens, UniProt Q07343)
Sequence (Q07343 whole entry): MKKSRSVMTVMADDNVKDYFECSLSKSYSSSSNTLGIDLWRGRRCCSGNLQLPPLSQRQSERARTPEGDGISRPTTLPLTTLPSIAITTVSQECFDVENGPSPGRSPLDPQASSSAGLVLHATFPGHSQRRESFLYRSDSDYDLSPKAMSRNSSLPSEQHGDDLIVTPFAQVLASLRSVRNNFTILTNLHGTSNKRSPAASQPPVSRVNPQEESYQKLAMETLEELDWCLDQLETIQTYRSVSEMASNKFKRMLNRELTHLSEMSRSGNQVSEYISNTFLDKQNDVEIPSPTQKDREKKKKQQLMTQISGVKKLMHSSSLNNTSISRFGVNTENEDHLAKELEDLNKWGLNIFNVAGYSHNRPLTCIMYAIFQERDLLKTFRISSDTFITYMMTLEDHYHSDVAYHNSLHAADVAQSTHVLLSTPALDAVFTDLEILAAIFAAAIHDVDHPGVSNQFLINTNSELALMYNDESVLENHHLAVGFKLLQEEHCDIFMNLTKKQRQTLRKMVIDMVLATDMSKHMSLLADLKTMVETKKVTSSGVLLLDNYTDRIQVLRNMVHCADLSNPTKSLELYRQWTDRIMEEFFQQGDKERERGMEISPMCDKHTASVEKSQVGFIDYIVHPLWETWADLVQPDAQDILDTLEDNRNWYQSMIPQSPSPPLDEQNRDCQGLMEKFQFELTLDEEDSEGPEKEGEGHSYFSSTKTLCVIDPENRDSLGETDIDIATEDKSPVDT
test.protocol: In-vitro assay for PDE4 enzymes, real-time enzyme-coupled spectrophotometric assay, PDE4B Activity (Table 10)
Format: biochemical
pIC50: −log10 of the molar value.

| compound | pIC50 |
| --- | --- |
| COc1ccc(Cc2ccc(OC(N)=O)cc2)c(F)c1-c1cccc(Cl)c1 [P-221] | > 5.30 |
| COc1ccc(Cc2cnc(NC(=O)NCCCl)nc2)c(F)c1-c1cccc(C(C)=O)c1 [P-366] | > 5.30 |
| NC(=O)Oc1ccc(Cc2ccc(=O)[nH]n2)cc1-c1cccc([N+](=O)[O-])c1 [P-020] | 4.40 to 4.68 |
| COc1ccc(Cc2ccc(CNC(=O)Oc3ccccc3)nc2)cc1-c1cccc(Cl)c1 [P-592] | > 5.30 |
| COc1ccc(Cc2cccc(OC(N)=O)c2)c(F)c1-c1cccc(Cl)c1 [P-222] | > 5.30 |

----------
experimental.target: PDE4 (Homo sapiens)
Sequence (Q08499 whole entry): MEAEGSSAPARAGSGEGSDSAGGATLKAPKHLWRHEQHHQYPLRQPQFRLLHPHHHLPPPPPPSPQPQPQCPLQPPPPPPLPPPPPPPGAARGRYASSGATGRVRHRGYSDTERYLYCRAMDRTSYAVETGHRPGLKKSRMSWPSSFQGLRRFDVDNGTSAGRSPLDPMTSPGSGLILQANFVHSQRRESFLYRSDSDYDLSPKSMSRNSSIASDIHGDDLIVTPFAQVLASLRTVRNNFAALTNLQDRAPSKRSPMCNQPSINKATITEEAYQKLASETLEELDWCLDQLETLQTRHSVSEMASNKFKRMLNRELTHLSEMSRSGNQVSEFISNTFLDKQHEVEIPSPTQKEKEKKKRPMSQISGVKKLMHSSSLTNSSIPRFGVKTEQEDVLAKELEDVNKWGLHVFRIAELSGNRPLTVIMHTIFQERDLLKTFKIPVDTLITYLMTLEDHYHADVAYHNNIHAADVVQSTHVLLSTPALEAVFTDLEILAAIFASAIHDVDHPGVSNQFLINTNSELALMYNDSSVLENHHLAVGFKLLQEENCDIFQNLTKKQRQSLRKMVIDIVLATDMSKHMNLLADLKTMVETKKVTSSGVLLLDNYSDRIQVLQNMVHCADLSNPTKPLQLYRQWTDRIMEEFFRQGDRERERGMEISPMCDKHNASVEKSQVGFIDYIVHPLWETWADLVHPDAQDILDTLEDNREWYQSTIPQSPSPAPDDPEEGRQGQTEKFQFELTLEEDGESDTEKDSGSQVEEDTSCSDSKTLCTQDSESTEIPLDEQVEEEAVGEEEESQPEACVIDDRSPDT
test.protocol: In-vitro assay for PDE4 enzymes, real-time enzyme-coupled spectrophotometric assay (Table 9)
Assay type: biochemical
cond: human PDE4D; activity class, Table 9; read-out: hPDE4D
Structures can show the parent of a compound that is named as a salt.
test.readout: IC50

| compound | result |
| --- | --- |
| COc1ccc([C@@](C)(O)c2ccc(NC(C)=O)cc2)c(F)c1-c1cccc(Cl)c1 (single isomer, unassigned) | < 5 µM |
| CCNC(=O)Nc1ccc(Cc2ccc(OC)c(-c3cccc(C#N)c3)c2F)cn1 [P-405, hydrochloride salt] | < 5 µM |
| COc1ccc(Cc2ccc(OCCN3CCCC3)cc2)cc1-c1cccc([N+](=O)[O-])c1 | < 5 µM |
| CCOc1ccc(Cc2ccc(NC(N)=O)cc2)cc1-c1cccc(Cl)c1 | < 5 µM |
| COc1ccc(Cc2ccc([N+](=O)[O-])c(O)c2)c(F)c1-c1cccc(Cl)c1 | < 5 µM |
| COc1ccc(CO)c(O)c1-c1cccc([N+](=O)[O-])c1 | < 5 µM |
| COc1ccc(Cc2ccc(NC(N)=O)cc2)c(F)c1-c1cccc(Cl)c1 | < 5 µM |
| COc1ccc(COc2ccc(N3CCC3)nc2)c(F)c1-c1cccc(Cl)c1 | < 5 µM |
| COc1ccc(Cc2ccc(N)nc2)c(F)c1-c1cccc(C(C)=O)c1 | < 5 µM |
| COc1ccc(Cc2ccccc2CN)cc1-c1cccc([N+](=O)[O-])c1 | 5 to 20 µM |
| COc1ccc(Cc2ccc(F)cc2)cc1-c1cccc(SC)c1 | < 5 µM |
| COc1ccc(Cc2cccc(N)c2)cc1-c1cccc(Cl)c1 | < 5 µM |
| COc1ccc(Cc2ccc(N(C)C)cc2)cc1-c1cccc(Cl)c1 | < 5 µM |
| COc1ccc(Cn2nc(C(F)(F)F)cc2-c2cccnc2)c(F)c1-c1cccc(Cl)c1 [P-552, hydrochloride salt] | < 5 µM |
| COc1ccc(CN2CCOCC2)nc1-c1cccc([N+](=O)[O-])c1 | 5 to 20 µM |
| COc1ccc(Cc2ccc3[nH]c(=O)oc3c2)c(F)c1-c1cccc(Cl)c1 | < 5 µM |
| CNC(=O)NCc1ccc(Cc2ccc(OC)c(-c3cccc(Cl)c3)c2F)cn1 [P-460, hydrochloride] | < 5 µM |
| COc1ccc(Cn2cncn2)cc1-c1cccc(C#N)c1 | < 5 µM |
